Items are presented alongside their recorded melting point.
Measured Metric: melting point

compound=O=C(NN1CCCN(C(=O)OCc2ccccc2)CC1)c1ccc(F)cc1 reported_value="116 to 118 °C"
compound=Nc1cc(C(=O)O)cc(SCc2ccccc2)c1Oc1ccccc1 reported_value="159 to 161 °C"
compound=O=c1oc(-c2ccc(-c3nc4ccccc4c(=O)o3)cc2)nc2ccccc12 reported_value="> 300 °C"
compound=CCOC(=O)c1cn(CCO)c2cc(-n3cccc3)c(F)cc2c1=O reported_value="237 to 239 °C"
compound="C1=CC(CCC2c3ccccc3-c3ccccc32)c2ccccc21 (centres undefined)" reported_value="79 to 80 °C"
compound=Nc1ccc(N(CCO)C(=O)OCc2ccccc2)c(O)c1 reported_value="142 °C"
compound="CCC(O)(c1ccc(OCc2cccc(C)n2)cc1)c1ccccc1C(F)(F)F (centres undefined)" reported_value="128 to 129 °C"
compound="COc1ccccc1CN[C@H]1CCCN(CCCc2ccccc2)[C@H]1c1ccccc1 (relative stereo)" reported_value="120 to 125 °C"
compound=O=C(c1cc(C2=CCCCC2)ccn1)N(O)Cc1ccccc1 reported_value="118 to 122 °C"
compound=CCc1nc2c(cnn2CC)c(NC2CCOCC2)c1CNC(=O)c1cccc(C(=O)NCc2ccc(F)c(-c3cccc(CN4CCN(C(C)C)CC4)c3)c2)c1 reported_value="165 to 169 °C"
compound="C=CCOC1CCC2C3CCC4CC(=O)CCC4(C)C3CCC12C (centres undefined)" reported_value="122 to 124 °C"
compound=COc1c2c(c(OC)c(OC)c1OC)CCC(CCn1cnc3ccccc31)CC2 reported_value="121 to 123 °C"
compound="Cc1c(C)c2c(c(C)c1NC(=O)c1ccc(Cl)cc1)C(c1ccc(C(C)C)cc1)C(C)(C)O2 (centres undefined)" reported_value="201 to 203 °C"
compound="CC1(C)NC(C(=O)O)C(C)(C)S1 (centres undefined)" reported_value="206 to 208 °C"
compound=CN(c1c(Cl)ccc2cc(-c3ncc(CO)s3)[nH]c12)S(=O)(=O)c1cccs1 reported_value="214 to 215 °C"
compound="O=C1c2ccccc2C(=O)N1CCCSC1N=CC=CN1NC(=S)NCC(F)(F)F (centres undefined)" reported_value="214 to 215 °C"
compound=CCOC(=NC(=O)Nc1ccc(OC(F)(F)F)cc1)c1c(F)cccc1F reported_value="98 to 100 °C"
compound=COc1ccc(C(=O)Nc2ccc(C(=O)Nc3ccccc3)cc2)cc1C12CC3CC(CC(C3)C1)C2 reported_value="265 to 268 °C"
compound="O=C1CC[C@H](CC(c2ccc(S(=O)(=O)C3CC3)cc2)c2ccc(-c3nccs3)[nH]2)C1 (some centres undefined)" reported_value="165 to 167 °C"

----------
Items are presented alongside their recorded melting point.
Measured Metric: melting point

compound=CCCCCCc1ccc(NC2=NCCS2)cc1 measured_metric="melting point" reported_value="77 to 79 °C"
compound="CCCCCCCCc1ccc(N(c2ccc(CCCCCCCC)cc2)C2(c3ccc(N(CC)CC)cc3C)OC(=O)c3nccnc32)cc1 (centres undefined)" measured_metric="melting point" reported_value="180 to 187 °C"
compound=Cc1cc(CN2CCC(N(C)S(=O)(=O)c3ccc(Nc4nccc(Nc5ccc(F)c(F)c5)n4)cc3)CC2)no1 measured_metric="melting point" reported_value="204 to 206 °C"
compound=O=S(=O)(NCc1ccnc2c(Cl)cccc12)c1ccc(Br)cc1 measured_metric="melting point" reported_value="185 °C"
compound=COc1ccc(N2C(=O)[C@@H](NC(=O)Cc3ccccc3)[C@H]2C=CC(=O)[C@@H]2CCCO2)cc1 measured_metric="melting point" reported_value="159 to 162 °C"
compound=CCCCCCCCCCCCc1ccc(CO)cc1 measured_metric="melting point" reported_value="44 to 45 °C"
compound=COCC1CCN(c2ccc(C#N)c3ccccc23)CC1 measured_metric="melting point" reported_value="96 to 97 °C"
compound=N#Cc1cccc2c1OCC2 measured_metric="melting point" reported_value="54.5 to 56 °C"
compound=OCCOc1ccc(-c2nc(-c3ccc(OCCO)cc3O)nc(-c3ccc(OCCO)cc3O)n2)c(O)c1 measured_metric="melting point" reported_value="195 °C"

----------
Items are presented alongside their recorded melting point.
Measured Metric: melting point

molecule=CC1(C)Cc2nc3ccccc3n2C(=O)N1 measured_metric="melting point" reported_value="205 to 210 °C"
molecule=O=C(c1ccc(-n2ccnc2)cc1)N1CCN(S(=O)(=O)c2ccc3cc(Br)ccc3c2)CC1 measured_metric="melting point" reported_value="207 to 209 °C"
molecule="CNCC1Cc2cccc(-c3c(C)cccc3C)c2O1 (stereo unspecified)" measured_metric="melting point" reported_value="> 250 °C"
molecule="COc1ccc(S(=O)(=O)N2c3ccc(Br)cc3-c3ccccc3C2C)cc1C (stereo unspecified)" measured_metric="melting point" reported_value="219 to 221 °C"
molecule=NS(=O)(=O)c1ccc(-c2c(-c3ccccc3)noc2COc2ccc(C(=O)O)cc2)cc1 measured_metric="melting point" reported_value="206 to 208 °C"
molecule=CCCCCCCCOc1ccc2nc(C(=O)NCC(=O)O)c(O)cc2c1 measured_metric="melting point" reported_value="153 to 155 °C"
molecule=CC#COc1ccc2oc3ccccc3c(=O)c2c1 measured_metric="melting point" reported_value="153 to 154 °C"
molecule=CC1=C(C(=O)OC(C)(C)C)C(c2ccccc2)C(C(=O)OC(C)(C)C)=C(C)N1 measured_metric="melting point" reported_value="187 to 188 °C"
molecule=c1ccc2c(OC[C@H]3CCCN3c3ccnc4ncnn34)cccc2c1 measured_metric="melting point" reported_value="74 to 75 °C"
molecule="CN(CC1CC=CCC1)c1ncnc2c1ncn2C1OC(CO)C(O)C1O (stereo unspecified)" measured_metric="melting point" reported_value="154 to 156 °C"
molecule="COc1ccc(-c2nn3c(S(C)=O)nnc3c3ccccc23)cc1 (stereo unspecified)" measured_metric="melting point" reported_value="201 °C"
molecule="COc1ccc(C(=O)N2CCC(N3CC4(CCN(Cc5ccccc5)CC4)c4ccccc43)c3ccccc32)cc1OC (stereo unspecified)" measured_metric="melting point" reported_value="155 to 157 °C"
molecule=Nc1nc(-c2cc(Cl)ccc2Cl)nc(N2C[C@H](O)C[C@H]2CO)n1 measured_metric="melting point" reported_value="171 to 173 °C"
molecule=CC(C)Oc1cc(CCCOc2ccc3ccccc3c2CC(=O)O)n(Cc2ccc(Cl)cc2Cl)n1 measured_metric="melting point" reported_value="120 to 122 °C"
molecule=COc1ccc(-c2nnc3c4ccccc4c(Nc4ccc(C#N)cc4)nn23)cc1 measured_metric="melting point" reported_value="314 °C"
molecule=COc1cccc(CC(=O)N2CCN(c3cccc(C(F)(F)F)c3)CC2)c1 measured_metric="melting point" reported_value="99 to 101 °C"
molecule=COc1cccc(-c2cn3c(ccc4ccccc43)n2)c1 measured_metric="melting point" reported_value="129 to 131 °C"
molecule=CCn1c(=O)c2ccc(C(=O)O)cc2n(Cc2ccc(Cl)cc2Cl)c1=O measured_metric="melting point" reported_value="238 to 240 °C"
molecule=O=C(O)c1ccc(-c2nc(-c3ccc(OC(F)F)cc3)co2)cc1 measured_metric="melting point" reported_value="261 to 262 °C"
molecule=OCC1(CO)CN(Cc2ccccc2)C1 measured_metric="melting point" reported_value="86 to 87 °C"
molecule=CC(C)(C)c1cc(C(N)=NO)cc2c1OCC2(C)C measured_metric="melting point" reported_value="109 to 110 °C"

----------
Items are presented alongside their recorded melting point.
Measured Metric: melting point

molecule=O=C(c1ccccc1)c1cc(Cl)ccc1-n1c(Br)nnc1CN1C(=O)c2ccccc2C1=O measured_metric="melting point" reported_value="202 to 204 °C"
molecule=CCOC(=O)C=C(C)C=CC=C(C)C=Cc1c(C)cc(OC)c(C)c1Cl measured_metric="melting point" reported_value="106 to 107 °C"
molecule=CCOC(=O)c1ccc(-c2ccc(O)cc2)cc1 measured_metric="melting point" reported_value="144 to 146 °C"
molecule=CCOC(=O)n1cc(C=O)c(-c2ccc([N+](=O)[O-])o2)n1 measured_metric="melting point" reported_value="140 to 141 °C"
molecule="NS(=O)(=O)c1ccc([C@H]2[C@H](C(=O)Nc3ccc(C(F)(F)F)cc3Cl)C23CCCC3)cc1 (relative stereo)" measured_metric="melting point" reported_value="111 to 113 °C"
molecule=CC(C)(Cn1cncn1)C(=O)C=Cc1ccc2ccccc2c1 measured_metric="melting point" reported_value="103 to 104 °C"
molecule="CC1(C)CC(N2CCCC2)c2sccc2O1 (stereo unspecified)" measured_metric="melting point" reported_value="49 to 50 °C"
molecule=Cc1c(-c2ccccc2)n(-c2cccc(S(C)(=O)=O)c2)c(-c2ccccc2)cc1=O measured_metric="melting point" reported_value="246 to 248 °C"
molecule=Cc1nc2c(Cc3ccccc3)cnn2c(=O)[nH]1 measured_metric="melting point" reported_value="225 °C"
molecule=Cc1ccc(CN2CCc3ccc(C(=O)CCC(=O)N4CCC(c5ccc(Cl)cc5)CC4)cc3CC2)cc1 measured_metric="melting point" reported_value="137 to 138 °C"
molecule="COC(=O)C1CCC2C3CCC4CC(O)C(OC)CC4(C)C3C(N)CC12C (stereo unspecified)" measured_metric="melting point" reported_value="177 to 184 °C"
molecule=CC(=O)c1cc2c(Cl)cccc2s1 measured_metric="melting point" reported_value="113 to 115 °C"
molecule=COc1ccc(CC(=O)Nc2cccc3nc(N[C@@H]4CCc5ccccc54)ccc23)cc1 measured_metric="melting point" reported_value="175 °C"
molecule=C[Si](C)(C)c1cccc2c1Sc1c(cccc1[Si](C)(C)C)S2 measured_metric="melting point" reported_value="90 to 91 °C"
molecule=O=C1CC(=O)/C(=C/c2ccccc2)N1 measured_metric="melting point" reported_value="186 to 187 °C"
molecule="CC12CCC3C(CCC4(O)CC(O)CCC34CO)C1(O)CCC2c1ccnnc1 (stereo unspecified)" measured_metric="melting point" reported_value="138 to 140 °C"
molecule=CCCc1c(C(=O)C(C)C)c2ccc(C(N)=O)cc2n1Cc1ccc(Cl)cc1 measured_metric="melting point" reported_value="183 to 184 °C"
molecule=COC(=O)C(=CNc1ncnc2ccc(NC(=O)CC(C)(C)C)cc12)C(=O)OC measured_metric="melting point" reported_value="196 to 198 °C"
molecule="N#CC1=C(C2CCCCC2=O)Nc2n[nH]cc2C1c1cccc2nonc12 (stereo unspecified)" measured_metric="melting point" reported_value="> 270 °C"
molecule=CC1(C)CCC(=O)Nc2ccc(Nc3ncc(Cl)c(Nc4ccccc4-c4ncccn4)n3)cc21 measured_metric="melting point" reported_value="186 °C"
molecule=Cc1ccc(C=C(C#N)c2ccccc2)cc1 measured_metric="melting point" reported_value="61 °C"
molecule="CC(=O)Nc1cccc2c1NC(=O)C2c1ccccc1 (stereo unspecified)" measured_metric="melting point" reported_value="258 to 262 °C"
molecule="COc1ccc(S(=O)(=O)N2C(=O)C(OCC(=O)N3CCN(c4ccncc4)CC3)(c3ccccc3OC(C)C)c3cc(Cl)ccc32)c(OC)c1 (stereo unspecified)" measured_metric="melting point" reported_value="201 to 203 °C"
molecule=CCCC(=O)Nc1cc(Sc2ccccc2)ccc1NC(=NC(=O)OC)NC(=O)OC measured_metric="melting point" reported_value="180 °C"
molecule=CC(=O)NC1(c2ccc(C(C)=O)cc2)CC1 measured_metric="melting point" reported_value="128 to 131 °C"
molecule=CN(C)C(=O)Nc1ccc(Oc2ccnc(Cl)n2)cc1 measured_metric="melting point" reported_value="192 °C"
molecule=CC(=O)Nc1nc(C)n2c1CN=C(c1ccccc1F)c1cc(Cl)ccc1-2 measured_metric="melting point" reported_value="175 to 178 °C"
molecule=OCCNC(=S)NC(=Nc1ccccc1)c1ccccc1 measured_metric="melting point" reported_value="144 to 145 °C"
molecule=Cc1cc(C)c(/C=C2\C(=O)N(CO)c3ccccc32)[nH]1 measured_metric="melting point" reported_value="196 to 200 °C"
molecule=N#Cc1c(O)ccc2ccccc12 measured_metric="melting point" reported_value="160 to 161 °C"
molecule=Cc1nc2c(N)nc3ccccc3c2n1CCCCOCC#Cc1ccccc1 measured_metric="melting point" reported_value="109 to 110 °C"
molecule=O=[N+]([O-])c1ccc(Oc2ccc(CBr)cc2)cc1 measured_metric="melting point" reported_value="68 to 70 °C"
molecule="O=C1NC(=O)C(c2ccc(Br)s2)O1 (stereo unspecified)" measured_metric="melting point" reported_value="139 to 140 °C"
molecule=C=CCOC(=O)c1ccccc1Cn1c(=O)n(S(=O)(=O)c2ccc(Cl)cc2)c(=O)c2ccc(Cl)cc21 measured_metric="melting point" reported_value="155 to 156 °C"
molecule=CC(C)CNC(=O)c1cc([N+](=O)[O-])cc([N+](=O)[O-])c1 measured_metric="melting point" reported_value="149 to 155 °C"
molecule="OC1c2ccccc2OC12CCCCCC2 (stereo unspecified)" measured_metric="melting point" reported_value="104 to 107 °C"
molecule="CCCCCCCCCCCCCCOc1ccc(CC(CO)CC2(C)OCCO2)cc1 (stereo unspecified)" measured_metric="melting point" reported_value="28 to 29 °C"
molecule=O=Cc1cc2c(s1)CCc1cc(=O)n(-c3ccc(Cl)cc3)nc1-2 measured_metric="melting point" reported_value="242 to 244 °C"
molecule="COc1cc(N)c(Cl)cc1C(=O)N[C@H]1CCNC[C@H]1OC (relative stereo)" measured_metric="melting point" reported_value="184 °C"
molecule=COc1cc(OCc2ccccn2)ccc1/C=C/c1cc(/C=C/c2ccccc2)[nH]n1 measured_metric="melting point" reported_value="143 to 146 °C"
molecule=COc1cc(N(Cc2cncs2)c2ccc(C(=O)O)cc2)ccc1C(N)=O measured_metric="melting point" reported_value="197 °C"
